- target-desc: SF-1 LBD (Homo sapiens)
- Construct: transformed with the SF-1 LBD (amino acids 218–461) in the pLIC-His vector; made in house; host or cells: E. coli BL21(DE3)-pLysS
- Sequence (Q13285 218-461): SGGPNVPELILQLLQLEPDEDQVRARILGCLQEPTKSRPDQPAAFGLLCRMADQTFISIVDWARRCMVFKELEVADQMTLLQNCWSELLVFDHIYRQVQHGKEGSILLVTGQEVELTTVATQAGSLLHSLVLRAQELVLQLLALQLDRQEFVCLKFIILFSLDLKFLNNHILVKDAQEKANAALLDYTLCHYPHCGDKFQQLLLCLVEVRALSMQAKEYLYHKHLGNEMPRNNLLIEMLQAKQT
- procedure-summary: Differential scanning fluorimetry (thermal shift assay)
- Type: binding
- conditions-used: SF-1 LBD pre-exchanged with DLPC, incubated with small molecule overnight
assay-metric: Tm (melting temperature) (°C)
Quick note: give the figure in °C, leave out the unit.

The examples below pair each entry with its known result.
                                   compound  units_of_measure  data_value
0  CCCCCCCCCCCC(=O)OC[C@H](COP(=O)([O-])OCC[N+](C)(C)C)OC(=O)CCCCCCCCCCC [DLPC, reference compound]                °C        52.2
1  C=C(c1ccccc1)[C@@]12CC[C@H](NS(N)(=O)=O)[C@@H]1CC(CCCCCCCCCC(=O)O)=C2c1ccccc1 (racemic) [6N-10CA]                °C        58.3
2  C=C(c1ccccc1)[C@@]12CC[C@@H](O)[C@@H]1CC(CCCCCCCCCC(=O)O)=C2c1ccccc1 (racemic) [10CA]                °C        54.5

query: Please give measured Tm (melting temperature) of the following entry: C=C(c1ccccc1)[C@@]12CC[C@H](NS(N)(=O)=O)[C@@H]1CC(CCCCCC)=C2c1ccccc1 (racemic) [6N]
result: 58.6

---

UniProt:Q13285: recorded pKi for assorted molecules
Quick note: pKi values are minus log10 of concentrations in mol/L.

>>> df
                                   molecule  data_value
0  C=C(c1ccccc1)[C@@]12CC[C@@H](O)[C@@H]1CC(CCCCCCCCCC(=O)O)=C2c1ccccc1 (racemic) [10CA]        6.60

Please look at the following molecule next.
query: Check the records and state pKi for C=C(c1ccccc1)[C@@]12CC[C@H](NS(N)(=O)=O)[C@@H]1CC(CCCCCCCCCC(=O)O)=C2c1ccccc1 (racemic) [6N-10CA]
result: 7.22

---

- target-desc: LRH-1 (Homo sapiens)
- Construct: expressed in transfected cells; host or cells: HeLa
- Sequence (O00482 whole entry): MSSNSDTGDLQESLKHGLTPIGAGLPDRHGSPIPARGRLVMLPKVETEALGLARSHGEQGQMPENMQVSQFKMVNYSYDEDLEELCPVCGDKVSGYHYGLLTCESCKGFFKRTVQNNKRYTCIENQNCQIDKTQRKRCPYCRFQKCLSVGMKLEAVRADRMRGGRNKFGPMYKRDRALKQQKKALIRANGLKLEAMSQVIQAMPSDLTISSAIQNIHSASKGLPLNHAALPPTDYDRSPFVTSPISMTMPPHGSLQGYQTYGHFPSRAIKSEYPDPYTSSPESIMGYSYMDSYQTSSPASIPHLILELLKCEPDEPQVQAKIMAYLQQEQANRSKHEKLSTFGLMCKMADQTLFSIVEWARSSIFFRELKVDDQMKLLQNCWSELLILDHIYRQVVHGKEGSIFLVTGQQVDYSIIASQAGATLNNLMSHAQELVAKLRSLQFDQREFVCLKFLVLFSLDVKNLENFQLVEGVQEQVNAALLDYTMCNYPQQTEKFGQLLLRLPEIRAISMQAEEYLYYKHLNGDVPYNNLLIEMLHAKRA
- procedure-summary: Luciferase reporter assay, LRH-1, HeLa cells
- Type: cell-based
- conditions-used: small molecule at 0.1, 1, and 10 μM, relative to DMSO control
assay-metric: LRH-1 activation in luciferase reporter assay

In [3]: df
Out[3]:
                                   compound        data_value
0  C=C(c1ccccc1)C12CCC(NC(C)=O)C1CC(CCCCCC)=C2c1ccccc1 (stereo not shown)   activated LRH-1
1  C=C(c1ccccc1)[C@@]12CC[C@H](NC(N)=O)C1CC(CCCCCCCCCC(=O)O)=C2c1ccccc1 (mixture of isomers) [4N-10CA]  improved agonism
2  C=C(c1ccccc1)C12CCC(NC(N)=O)C1CC(CCCCCC)=C2c1ccccc1 (stereo not shown)   activated LRH-1
3  C=C(c1ccccc1)[C@@]12CC[C@H](NC(C)=O)C1CC(CCCCCCCCCC(=O)O)=C2c1ccccc1 (mixture of isomers) [2N-10CA]  improved agonism
